# Population Mitotic Cells (%) per entry
test system: HEK-293T; assay: Multiplex assay against HEK293T; format: toxicity, cell-based; conditions: human, 24 h, 10 µM, compound concentration 10 uM, replicate 2

See these solved cases before continuing.
CCCCC(=O)N(Cc1ccc(-c2ccccc2-c2nnn[nH]2)cc1)[C@H](C(=O)O)C(C)C | 64%
CC[C@@H](C)Nc1nc(C)nc2c(-c3ccc(OC)nc3C)c(C)nn12 [PEXACERFONT] | 66%
Cl.N=C(N)NC(=O)Cc1c(Cl)cccc1Cl [GUANFACINE HYDROCHLORIDE] | 63%
N#Cc1cc(F)cc(-c2nc(-c3ccc(F)cn3)no2)c1 | 60%
Cc1cccc(NC(=O)CN2CCC(c3ccccn3)CC2)c1.Cl.Cl | 50%

Inquiry: Fill in reported Population Mitotic Cells (%) for this entry: CC(C)c1noc(N2CCC(COc3ccc(-c4ccc(S(C)(=O)=O)cc4)nc3)CC2)n1 [GSK-1292263]
Reply text: 53%

Inquiry: Fill in reported Population Mitotic Cells (%) for this entry: `O=C1[C@H](Cc2ccc(O)cc2)N2C(=O)CCN(C(=O)NCc3ccccc3)[C@H]2CN1Cc1cccc2ccccc12`
Reply text: 25%

----------
system: U2OS; test: Multiplex assay against U2OS; assay type: toxicity, cell-based; conditions: human, 48 h, 1 µM, compound concentration 1 uM, replicate 1
readoutKind: Total Cell Count
Would you mind answering with just the numeric figure?

COC[C@@H](c1ccc(C(F)(F)F)cc1)N1CCN(C2(C)CCN(C(=O)c3c(C)ncnc3C)CC2)C[C@@H]1C.O=C(O)/C=C\C(=O)O [VICRIVIROC MALEATE] | 416
Cl.NCCc1ccc(O)c(O)c1 [DOPAMINE HYDROCHLORIDE] | 363
O=C1[C@H](Cc2ccc(O)cc2)N2C(=O)CCN(C(=O)NCc3ccccc3)[C@H]2CN1Cc1cccc2ccccc12 | 326

Inquiry: Recall the reported Total Cell Count of `Cc1onc(-c2ccccc2Cl)c1C(=O)N(C)c1ccc(Cl)cc1` on U2OS and write it down.
Reply text: 450

----------
test system: HEK-293T; assay: Multiplex assay against HEK293T; assay type: toxicity, cell-based; details: human, 12 h, 10 µM, compound concentration 10 uM, replicate 1
readoutKind: Population Fragmented Nuclei (%)
Please state the figure in %; there is no need to write the unit.

See these solved cases before continuing.
Cc1noc(-c2ccc(-c3ccc(CC(=O)O)cc3)cc2)c1NC(=O)O[C@H](C)c1ccccc1Cl | 11
CCCOc1ccc2[nH]cc(C3=CCNCC3)c2n1.Cl | 5
C[C@H](N)COC(=O)[C@@H](CCCCN)NC(=O)Cc1c(-c2ccc3ccccc3c2)[nH]c2c1ccc1ccccc12 | 7
CN[C@@H](C)C(=O)N[C@H](C(=O)N1CCC[C@H]1C(=O)Nc1snnc1-c1ccccc1)C1CCCCC1 | 6
COC[C@@H](c1ccc(C(F)(F)F)cc1)N1CCN(C2(C)CCN(C(=O)c3c(C)ncnc3C)CC2)C[C@@H]1C.O=C(O)/C=C\C(=O)O [VICRIVIROC MALEATE] | 6
COc1ccccc1N1CCN(C[C@@H](C(=O)NC(C)(C)C)c2ccccc2)CC1.Cl.Cl | 7
CCCCC1=NC2(CCCC2)C(=O)N1Cc1ccc(-c2ccccc2-c2nnn[nH]2)cc1 | 7
O=C(CCCc1ccccc1)Nc1nc2ccccc2c(=O)s1 | 10
CC(C)c1noc(N2CCC(COc3ccc(-c4ccc(S(C)(=O)=O)cc4)nc3)CC2)n1 | 6

Proceed to the following item.
Inquiry: Fill in reported Population Fragmented Nuclei (%) for this entry: `CCc1cc2cc(NS(=O)(=O)c3ccc(C#N)cc3)ccc2n(CC)c1=O`
Reply text: 7

----------
test system: U2OS; assay: Multiplex assay against U2OS; assay type: toxicity, cell-based; settings: human, 12 h, 1 µM, compound concentration 1 uM, replicate 2
readoutKind: Population Tubulin-Different-Phenotype (%)
Please state the figure in %; there is no need to write the unit.

See these solved cases before continuing.
CCCOc1ccc2[nH]cc(C3=CCNCC3)c2n1.Cl | 5
Cl.NCCc1ccc(O)c(O)c1 [DOPAMINE HYDROCHLORIDE] | 5
CCCCC(=O)N(Cc1ccc(-c2ccccc2-c2nnn[nH]2)cc1)[C@H](C(=O)O)C(C)C | 2
COc1cccc2c1c(NS(=O)(=O)c1ccc(Cl)s1)nn2Cc1cccc(CNC(=O)C(C)(C)O)c1 | 6
CCc1cc2cc(NS(=O)(=O)c3ccc(C#N)cc3)ccc2n(CC)c1=O | 7
CCCCC1=NC2(CCCC2)C(=O)N1Cc1ccc(-c2ccccc2-c2nnn[nH]2)cc1 | 8
CC(C)(C)c1cc(NC(=O)Nc2ccc(-c3cn4c(n3)sc3cc(OCCN5CCOCC5)ccc34)cc2)no1 | 4
CC(C)c1noc(N2CCC(COc3ccc(-c4ccc(S(C)(=O)=O)cc4)nc3)CC2)n1 | 2

Inquiry: Fill in reported Population Tubulin-Different-Phenotype (%) for this entry: `N#Cc1cc(F)cc(-c2nc(-c3ccc(F)cn3)no2)c1`
Reply text: 2

Inquiry: Fill in reported Population Tubulin-Different-Phenotype (%) for this entry: COC[C@@H](c1ccc(C(F)(F)F)cc1)N1CCN(C2(C)CCN(C(=O)c3c(C)ncnc3C)CC2)C[C@@H]1C.O=C(O)/C=C\C(=O)O [VICRIVIROC MALEATE]
Reply text: 7

Inquiry: Fill in reported Population Tubulin-Different-Phenotype (%) for this entry: `CC[C@@H](C)Nc1nc(C)nc2c(-c3ccc(OC)nc3C)c(C)nn12`
Reply text: 0

Inquiry: Fill in reported Population Tubulin-Different-Phenotype (%) for this entry: Cc1sc2c(c1C)C(c1ccc(Cl)cc1)=N[C@@H](CC(=O)NCCCCCCCCNC(=O)COc1cccc3c1C(=O)N(C1CCC(=O)NC1=O)C3=O)c1nnc(C)n1-2 (some centres not stated)
Reply text: 3

Inquiry: Fill in reported Population Tubulin-Different-Phenotype (%) for this entry: `O=C1[C@H](Cc2ccc(O)cc2)N2C(=O)CCN(C(=O)NCc3ccccc3)[C@H]2CN1Cc1cccc2ccccc12`
Reply text: 4

Inquiry: Fill in reported Population Tubulin-Different-Phenotype (%) for this entry: `CC(C)COc1ccc(CNC(=O)N(Cc2ccc(F)cc2)C2CCN(C)CC2)cc1`
Reply text: 6

Inquiry: Fill in reported Population Tubulin-Different-Phenotype (%) for this entry: O=C(NCCN1CCC(n2c(=O)[nH]c3cc(Cl)ccc32)CC1)c1ccc(F)cc1 [HALOPEMIDE]
Reply text: 3

Inquiry: Fill in reported Population Tubulin-Different-Phenotype (%) for this entry: `N#Cc1c(Oc2cccc(OS(=O)(=O)CCCC(F)(F)F)c2)cccc1C(F)(F)F`
Reply text: 8

Inquiry: Fill in reported Population Tubulin-Different-Phenotype (%) for this entry: Br.CS(=O)(=O)Nc1c(O)ccc2c1CCCC2C1=NCCN1 (configuration not stated)
Reply text: 1

----------
tested on: U2OS; test: Multiplex assay against U2OS; assay type: toxicity, cell-based; details: human, 12 h, 10 µM, compound concentration 10 uM, replicate 2
Could you label it y if measured Population Pyknosed Nuclei (%) is 10% or higher, and n otherwise?

CC(=O)Nc1cccc2c1c(Sc1ccc(Cl)cc1)c(C)n2CC(=O)O [AZD1981] | n
NCCc1cn(S(=O)(=O)c2c(Cl)nc3sccn23)c2ccccc12.O=C(O)C(=O)O | y
CN(C)C(=O)Cn1cc(-c2ccc(-c3cncc4ccccc34)cc2)cn1 | n
O=C1[C@H](Cc2ccc(O)cc2)N2C(=O)CCN(C(=O)NCc3ccccc3)[C@H]2CN1Cc1cccc2ccccc12 | y
Cl.N=C(N)NC(=O)Cc1c(Cl)cccc1Cl [GUANFACINE HYDROCHLORIDE] | n

Inquiry: Answer whether Population Pyknosed Nuclei (%) of Cc1c(CC(=O)O)c2cccnc2n1Cc1ccc(S(C)(=O)=O)cc1C(F)(F)F [FEVIPIPRANT] is greater than or equal to 10%.
Reply text: n

Inquiry: Answer whether Population Pyknosed Nuclei (%) of `COc1ccccc1N1CCN(C[C@@H](C(=O)NC(C)(C)C)c2ccccc2)CC1.Cl.Cl` is greater than or equal to 10%.
Reply text: y

Inquiry: Answer whether Population Pyknosed Nuclei (%) of `O=C(CCCc1ccccc1)Nc1nc2ccccc2c(=O)s1` is greater than or equal to 10%.
Reply text: y

Inquiry: Answer whether Population Pyknosed Nuclei (%) of CC(C)(C)c1cc(NC(=O)Nc2ccc(-c3cn4c(n3)sc3cc(OCCN5CCOCC5)ccc34)cc2)no1 [QUIZARTINIB] is greater than or equal to 10%.
Reply text: y

Inquiry: Answer whether Population Pyknosed Nuclei (%) of `COc1cccc2c1c(NS(=O)(=O)c1ccc(Cl)s1)nn2Cc1cccc(CNC(=O)C(C)(C)O)c1` is greater than or equal to 10%.
Reply text: n

----------
system: U2OS; assay: Multiplex assay against U2OS; assay type: toxicity, cell-based; conditions: human, 12 h, 1 µM, compound concentration 1 uM, replicate 2
Entries are grouped by Population Mitotic Cells (%) into these classes: b0 = under 10%, b1 = from 10% up to 20%, b2 = 20% and over

O=C1[C@H](Cc2ccc(O)cc2)N2C(=O)CCN(C(=O)NCc3ccccc3)[C@H]2CN1Cc1cccc2ccccc12 | b1
Cc1c(CC(=O)O)c2cccnc2n1Cc1ccc(S(C)(=O)=O)cc1C(F)(F)F | b2
CCCCC1=NC2(CCCC2)C(=O)N1Cc1ccc(-c2ccccc2-c2nnn[nH]2)cc1 | b2

Inquiry: Bin this entry: `CC(/C=C1\SC(=S)N(CCCC(=O)Nc2ccc(C(=O)O)c(O)c2)C1=O)=C\c1ccccc1`
Reply text: b0

Inquiry: Bin this entry: `Cc1cccc(NC(=O)CN2CCC(c3ccccn3)CC2)c1.Cl.Cl`
Reply text: b2

Inquiry: Bin this entry: `CC(C)c1noc(N2CCC(COc3ccc(-c4ccc(S(C)(=O)=O)cc4)nc3)CC2)n1`
Reply text: b0

Inquiry: Bin this entry: `CCc1cc2cc(NS(=O)(=O)c3ccc(C#N)cc3)ccc2n(CC)c1=O`
Reply text: b0

Inquiry: Bin this entry: `CC(=O)Nc1cccc2c1c(Sc1ccc(Cl)cc1)c(C)n2CC(=O)O`
Reply text: b1

Inquiry: Bin this entry: `N#Cc1c(Oc2cccc(OS(=O)(=O)CCCC(F)(F)F)c2)cccc1C(F)(F)F`
Reply text: b1

Inquiry: Bin this entry: `CCCCC(=O)N(Cc1ccc(-c2ccccc2-c2nnn[nH]2)cc1)[C@H](C(=O)O)C(C)C`
Reply text: b0

Inquiry: Bin this entry: Cc1sc2c(c1C)C(c1ccc(Cl)cc1)=N[C@@H](CC(=O)NCCCCCCCCNC(=O)COc1cccc3c1C(=O)N(C1CCC(=O)NC1=O)C3=O)c1nnc(C)n1-2 (stereo partly drawn)
Reply text: b1

Inquiry: Bin this entry: O=C(NCCN1CCC(n2c(=O)[nH]c3cc(Cl)ccc32)CC1)c1ccc(F)cc1 [HALOPEMIDE]
Reply text: b2

Inquiry: Bin this entry: `Cc1noc(-c2ccc(-c3ccc(CC(=O)O)cc3)cc2)c1NC(=O)O[C@H](C)c1ccccc1Cl`
Reply text: b1

Every entry's value here was drawn from ChEMBL document CHEMBL5058577.
